- ASSAY COMMENT: Thermodynamic solubility of the compound at pH 4.5
- Type: physicochemical
- CONDITION NOTES: buffer, read-out: Therm_solubility
ASSAY READOUT: solubility thermodynamic (µM)
Provide only the numeric value, understood in µM.

Query Nc1cc(C(F)F)c(-c2nc(N3C4CCC3COC4)nc(N3C4CCC3COC4)n2)cn1 yields solubility thermodynamic of 78.2

---

- ASSAY COMMENT: Half life in rat hepatocytes
- Assay type: ADME, cell-based, Hepatocyte
ASSAY READOUT: half-life (h)
Lab book: enter the figure in h, no units written.

// field: half-life; key: Nc1cc(C(F)F)c(-c2nc(N3C4CCC3COC4)nc(N3C4CCC3COC4)n2)cn1 ; value = 7.81
